In this section, each of the molecules is paired with its reported melting point.

* CC(C)=C(F)CC(CC(C)C)C(=O)Nc1cnc2c(F)cccc2c1 (stereo not shown) | 103 to 105 °C
* C/C=C(\C)CC(C)(CC(C)C)C(=O)Nc1cnc2c(F)cccc2c1 (stereo not shown) [Compound E2] | 135 to 137 °C
* CC1(CC(C)(CC(F)(F)F)C(=O)Nc2cnc3c(F)cccc3c2)CC1 (stereo not shown) [Compound E1] | 60 to 70 °C

Qu. Recorded melting point of CC(CC1CCCCC1)C(=O)Nc1cnc2c(F)cccc2c1 (stereo not shown) , please.
Ans. 179 to 181 °C
